Assay: cytotoxicity in HPDE-C7 cells, cell-based, fluorescence, HTS (AID 430);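 further: cells exposed to compound for 48 hours before viability readout; 0% = vehicle and 100% = reference cytotoxic drug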
Conditions: HPDE-C7 pancreatic duct cells viability, at 10 µM, stronger effect = higher value
In all, about 63,000 compounds went through this assay and about 1,100 (1.7%) were called active. The sample holds actives, similar compounds and a random draw of the others, so the mix is not that of the screen. Measured potencies and affinities stand elsewhere.
cytotoxicity overview
A number alone suffices; assume %.

cytotoxicity for `O=C(CSC1=NCCS1)Nc1ccccc1F` is -3.4

cytotoxicity for `CCN(CCNC(=O)c1cccc(N2CCCC2=O)c1)c1ccccc1` is -9.5

cytotoxicity for COc1ccc(N(C(=O)CNC(=O)c2ccco2)C(C(=O)NC2CCCCC2)c2ccco2)cc1 (configuration not stated) is -2.6

cytotoxicity for `Cc1noc(C(=O)Nc2sc3c(c2C#N)CCC3)c1Cl` is 19

cytotoxicity for COc1cccc(N2CCN(C3CC(=O)N(c4ccc(Cl)c(Cl)c4)C3=O)CC2)c1 (configuration not stated) is 1.1

cytotoxicity for `COc1ccc(-c2noc(COc3ccc(C)c(C)c3)n2)cc1OC` is 3.4

cytotoxicity for CCCc1[nH]nc2c1C(c1ccccc1OC)C(C#N)=C(N)O2 (configuration not stated) is 4.9

cytotoxicity for `COc1cccc(-c2nnc(NC(=O)c3cccc(F)c3)o2)c1` is 61.8

cytotoxicity for `CCC(=O)Nc1nc2c(OC)ccc(C)c2s1` is 4

cytotoxicity for `COc1cccc(-c2nnc(NC(C)=O)o2)c1` is 7.6

cytotoxicity for CCCCC(c1nnnn1CS(=O)(=O)c1ccc(C)cc1)N1CCN(c2ccccc2)CC1 (configuration not stated) is -30

cytotoxicity for `CCOC(=O)Nc1ccc(S(=O)(=O)Nn2cnnc2)cc1` is -3.3

cytotoxicity for `COc1cc(C(=O)Nc2ccc(NC(=O)c3ccco3)nc2)cc(OC)c1OC` is -2.5

cytotoxicity for Cc1ccc(C(=O)C2=C(O)C(=O)N(CCCN3CCOCC3)C23C(=O)N(C)c2ccccc23)o1 (configuration not stated) is -20.1

cytotoxicity for `Cc1cccc2cc(COC(=O)c3ccccn3)c(=O)[nH]c12` is -10.7

cytotoxicity for `O=S(=O)(NCCC1=CCCCC1)c1cccc2nsnc12` is -4.7

cytotoxicity for Cc1cc(C2N=C(N)Nc3nc4ccccc4n32)c(C)n1-c1ccccc1Cl (configuration not stated) is 2.7

cytotoxicity for `O=C(Nc1nc(-c2cc3ccccc3oc2=O)cs1)c1ccco1` is 85

cytotoxicity for COc1ccc(C(C#N)N2CCCCC2)cc1OC (configuration not stated) is -1.7

cytotoxicity for CC(C)c1[nH]nc2c1C(c1cccnc1)C(C#N)=C(N)O2 (configuration not stated) is -15.1

cytotoxicity for `Cc1ccc(S(=O)(=O)C2(C(=O)N3CCN(C4CCCCC4)CC3)CC2)cc1` is 6.1

cytotoxicity for `CC1(C)Nc2ccc(O)cc2-c2c1ssc2=S` is 67.4

cytotoxicity for NC1=NC(c2ccc(F)cc2)n2c(nc3ccccc32)N1 (configuration not stated) is -3.6

cytotoxicity for `O=C(c1ccc(COc2ccccc2Cl)o1)N1CCN(Cc2ccc3c(c2)OCO3)CC1` is 87.5
